target: human TMEM106B (human, UniProt Q9NUM4 2-274); assay: cell-based or functional assay; further: test concentration or dose not given here
Each record here notes measured % Protection from CPE.
A number alone suffices; assume %.

BINDER	% Protection from CPE [%]
TM-59 (antibody, V domains shown) VH: QVQLQQSGAELAKPGASVKLSCKASGYTFISYWMHWVKQRPGQGLEWIGYVNPSSGYTKNNQKFKDKATLTADKSSSTAYMQLSSLTYEDSAVYYCAREGGSISDWYFDVWGTGTTVTVSS VL: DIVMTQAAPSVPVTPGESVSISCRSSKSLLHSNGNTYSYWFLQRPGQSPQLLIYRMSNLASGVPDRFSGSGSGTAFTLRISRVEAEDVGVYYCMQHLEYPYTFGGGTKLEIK	92.3

Shifting focus to the binder that follows.
Input line: Which % Protection from CPE value belongs to TM-21 (antibody, V domains shown) VH: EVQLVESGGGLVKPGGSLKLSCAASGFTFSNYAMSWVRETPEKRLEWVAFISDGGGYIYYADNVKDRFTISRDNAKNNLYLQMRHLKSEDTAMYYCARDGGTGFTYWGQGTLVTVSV VL: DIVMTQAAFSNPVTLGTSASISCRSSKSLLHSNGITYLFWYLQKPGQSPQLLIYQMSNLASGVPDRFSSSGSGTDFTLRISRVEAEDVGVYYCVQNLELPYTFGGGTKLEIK ?
Output line: 93.7

The measurements presented in this section are drawn from patent US20240166738A1.
